- System: expanded OPCs
- assay_remarks: cells
- applied_conditions: alamarBlue viability of expanded OPCs, compound at 0.1 µM, relative to DMSO control
recorded_metric: 0.1 µM (% DMSO)
Provide the reading as a plain figure in % DMSO.

The examples below pair each entry with its known result.
CCCNCC(O)COc1ccccc1C(=O)CCc1ccccc1 (stereo not shown): 76.8
OCCN1CCN(CCCN2c3ccccc3Sc3ccc(Cl)cc32)CC1 [Perphenazine, reference compound]: 154.3
C[C@@H]1C[C@H]2[C@@H]3CCC4=CC(=O)C=C[C@]4(C)[C@@]3(F)[C@@H](O)C[C@]2(C)[C@@]1(O)C(=O)CO [Dexamethazone]: 115.8

For the next question, use this compound.
// query What value of 0.1 µM (% DMSO) on expanded OPCs does CN(C)CCC=C1c2ccccc2COc2ccccc21 [Doxepin] have?
// result 109.3

----------
Catalogue of compounds with associated viability at 1 µM
- System: expanded OPCs
- assay_remarks: cells
- applied_conditions: Rattus norvegicus, 72 h, read-out: 1 µM (% DMSO), alamarBlue viability of expanded OPCs, compound at 1 µM, sheet All Tox data
- Source text: Having established a consistent assay for measuring OL differentiation in vitro, the next step was to utilize this assay to assess the ability of a wide array of compounds to promote OL differentiation. Prior to library screening, we first established the maximum non-toxic dose of each compound in the library. […] Three days later, we assessed viability of the treated cells by measuring AlamarBlue fluorescence, a measure of cell viability (see “Methods” section). […]
Answer format: numeric, % implied, no suffix.

// query Item C=CCc1ccc(O)c(-c2ccc(O)c(CC=C)c2)c1 has what recorded viability at 1 µM?
// result 78.2

// query viability at 1 µM for C=C1/C(=C\C=C2/CCC[C@]3(C)[C@@H]([C@H](C)/C=C/[C@@H](O)C4CC4)CC[C@@H]23)C[C@@H](O)C[C@@H]1O ?
// result 89

// query State the recorded viability at 1 µM for this entry: CN(C)CCc1c[nH]c2ccc(Cn3cncn3)cc12
// result 94.8

----------
// reported activation at 0.4 µM for each item listed
- Tested on: acutely dissociated and purified rat OPCs
- assay_remarks: Acute OL differentiation assay (MBP expression/cell, immunofluorescent image quantification)
- Type: cell-based
- applied_conditions: Rattus norvegicus, test compound at 0.4 uM; MBP expression relative to quetiapine; NCC library screen, sheet "All OLga data"; read-out: 0.4 uM (% Quet)
- Description: In order to identify compounds with the potential to promote OL differentiation in vivo and thereby enhance remyelination, we first wanted to establish an in vitro assay system that would closely mimic conditions in vivo. […] To quantify the extent of OL differentiation occurring in treatment conditions, we measured the overall amount of MBP expression/cell (see “Methods” section). Figure 2a depicts the mask created over MBP staining under which the MBP expression was quantified. […]
I only need the number, in %, no unit after it.

Completed entries (count: 10):
CO[C@H]1/C=C/O[C@@]2(C)Oc3c(C)c(O)c4c(O)c(c(/C=N/N5CCN(C6CCCC6)CC5)c(O)c4c3C2=O)NC(=O)/C(C)=C\C=C\[C@H](C)[C@H](O)[C@@H](C)[C@@H](O)[C@@H](C)[C@H](OC(C)=O)[C@@H]1C [Rifapentine]: -18.6
O=C(c1ccc(OCCN2CCCCC2)cc1)c1c(-c2ccc(O)cc2)sc2cc(O)ccc12 [Raloxifene, reference compound]: -62.1
COC(=O)[C@H](c1ccccc1Cl)N1CCc2sccc2C1 [Clopidogrel]: -4
CN1CCN(CC/C=C2/c3ccccc3Sc3ccc(S(=O)(=O)N(C)C)cc32)CC1 [Thiothixene]: 24
CN1[C@@H]2CC[C@H]1C[C@@H](OC(c1ccccc1)c1ccccc1)C2 [Benzatropine]: 123
CC[C@H](C)C(=O)O[C@H]1C[C@@H](C)C=C2C=C[C@H](C)[C@H](CC[C@@H]3C[C@@H](O)CC(=O)O3)[C@H]21 [Lovastatin]: -70.9
CCN(CC)CCOc1ccc(C(=C(Cl)c2ccccc2)c2ccccc2)cc1 [Clomiphene]: 51.5
CC[C@H]1OC(=O)[C@H](C)[C@@H](O[C@H]2C[C@@](C)(OC)[C@@H](O)[C@H](C)O2)[C@H](C)[C@@H](O[C@@H]2O[C@H](C)C[C@H](N(C)C)[C@H]2O)[C@](C)(O)C[C@@H](C)CN(C)[C@H](C)[C@@H](O)[C@]1(C)O [Azithromycin]: -7.2
Fc1ccc([C@@H]2CCNC[C@H]2COc2ccc3c(c2)OCO3)cc1 [Paroxetine]: -15.9
CCC(C)(C)C(=O)O[C@H]1C[C@@H](C)C=C2C=C[C@H](C)[C@H](CC[C@@H]3C[C@@H](O)CC(=O)O3)[C@H]21 [Simvastatin]: -105

// query Query (molecule): COC(=O)Nc1nc2ccc(C(=O)c3ccccc3)cc2[nH]1 [Mebendazole] ; field requested: activation at 0.4 µM
// result -139

// query Which value of activation at 0.4 µM has been reported for CC(C)n1c(/C=C/C(O)CC(O)CC(=O)O)c(-c2ccc(F)cc2)c2ccccc21 (centres unmarked) [Fluvastatin] in the records?
// result -73.4

// query activation at 0.4 µM lookup needed for CN(C)CCCN1c2ccccc2CCc2ccc(Cl)cc21 [Clomipramine] , thanks.
// result -59.9

// query For the molecule Cc1cccc(CN2CCN(C(c3ccccc3)c3ccc(Cl)cc3)CC2)c1 (centres unmarked) [Meclizine] , what activation at 0.4 µM is on record?
// result 96.7

----------
// 0.1 µM (% DMSO) lookup, one value per entry
- Tested on: expanded OPCs
- assay_remarks: cells
- applied_conditions: alamarBlue viability of expanded OPCs, compound at 0.1 µM, relative to DMSO control
Quick reminder: number only, in % DMSO, skip the unit.

For orientation, consider the following solved cases.
C[N+]1(C)CCC(OC(=O)C(O)(c2ccccc2)C2CCCC2)C1 (stereo not drawn) [Glycopyrrolate]: 100.4
CC(=O)O[C@]1(C(C)=O)CC[C@H]2[C@@H]3C[C@H](C)C4=CC(=O)CC[C@]4(C)[C@H]3CC[C@@]21C [Medroxyprogesterone acetate]: 104.2

// query For the compound shown here, NC(=O)c1cnccn1 [Pyrazinamide] , give the reported 0.1 µM (% DMSO).
// result 89.2

// query Record request: 0.1 µM (% DMSO) value, item COC1=CC(=O)C[C@@H](C)[C@]12Oc1c(Cl)c(OC)cc(OC)c1C2=O
// result 95.9

// query Give the measured 0.1 µM (% DMSO) of O=C1CC[C@@]2(O)[C@H]3Cc4ccc(O)c5c4[C@@]2(CCN3CC2CC2)[C@H]1O5 [Naltrexone] .
// result 99.5

// query Returns the measured 0.1 µM (% DMSO) for the input compound. Input: NS(=O)(=O)c1cc2c(cc1Cl)NCNS2(=O)=O [Hydrochlorothiazide]
// result 96.6

// query 0.1 µM (% DMSO) for Nc1ccc(S(=O)(=O)c2ccc(N)cc2)cc1 ?
// result 101.9

----------
- System: expanded OPCs
- assay_remarks: cells
- applied_conditions: Rattus norvegicus, 72 h, read-out: 10 µM (% DMSO), alamarBlue viability of expanded OPCs, compound at 10 µM, sheet All Tox data
recorded_metric: viability at 10 µM (%)
Report as a plain number; the unit % is understood.

// query Request the reported viability at 10 µM associated with Cc1cn([C@H]2C=C[C@@H](CO)O2)c(=O)[nH]c1=O
// result 107

----------
- Tested on: expanded OPCs
- assay_remarks: cells
- applied_conditions: alamarBlue viability, NCC library compound at 1 µM, sheet "All Tox data"
Counter-ions that a name gives are not always drawn.
Doc: threshold 90 % DMSO (exclusive). Items with 1 µM (% DMSO) beneath it return Fulfilled; others return Not fulfilled.

Worked set:
CC(C)c1ccc2c(c1)c(SC(C)(C)C)c(CC(C)(C)C(=O)O)n2Cc1ccc(Cl)cc1: Not fulfilled
CO[C@H]1O[C@@H]2O[C@@]3(C)CC[C@H]4[C@H](C)CC[C@@H]([C@H]1C)[C@@]24OO3: Fulfilled
CN1CCc2cc(Cl)c(O)cc2[C@@H](c2ccccc2)C1 [R(+) SCH 23390]: Fulfilled

Note: attention shifts to another entry.
// query Please determine if C[C@]12CC[C@@H]3c4ccc(OS(=O)(=O)O)cc4CC[C@H]3[C@@H]1CCC2=O [Estrone sulfate] is below 90 % DMSO in terms of 1 µM (% DMSO).
// result Fulfilled

----------
Collected viability at 10 µM values appear next to each entry.
- Test system: expanded OPCs
- assay_remarks: cells
- applied_conditions: Rattus norvegicus, 72 h, read-out: 10 µM (% DMSO), alamarBlue viability, NCC library compound at 10 µM, sheet "All Tox data"
Quick note: number first, unit second.

Example results:
Cc1noc(NS(=O)(=O)c2ccc(N)cc2)c1C: 103%
c1ccc2[nH]c(-c3cscn3)nc2c1: 109%
O=C(O)COCCN1CCN(C(c2ccccc2)c2ccc(Cl)cc2)CC1 (centres unmarked): 87.4%

// query Which measured viability at 10 µM value corresponds to CN1CCN2c3ncccc3Cc3ccccc3C2C1 (centres unmarked) ?
// result 60.1%

// query Query (compound): c1ccc2c3c([nH]c2c1)CNCC3 ; field requested: viability at 10 µM
// result 62.6%

Where do these numbers come from? They come from paper PMC5011342.
